Listing of entries alongside the reported IC50 at 72 h.
- procedure text: Hit confirmation in dose-response curve in HepG2 cytotoxicity assay, at 72h
- Assay type: toxicity, cell-based, Homo sapiens
- Parameters: timepoint 72 hour
- condition context: human, HepG2 cells
quantity name: IC50 at 72 h

compound: Cc1ccc(-c2cccc3c(C(=O)NCCCN4CCC(N5CCCCC5)CC4)cc(C)nc23)cc1
obs value: 5.01 µM
//
compound: COc1ccc2nc3cc(Cl)ccc3c(O)c2c1
obs value: > 10 µM
//
compound: CN(CCCn1ccnc1)c1ccnc2cc(Br)ccc12
obs value: > 10 µM
//
compound: Cc1cc(N2CCC(NC3CCNC(c4ccccc4)C3)CC2)nc(C)n1 (stereo unspecified)
obs value: > 10 µM
//
compound: C[C@@H](CNC1CCN(C2CCN(C)CC2)CC1)c1cccc(Cl)c1
obs value: > 10 µM
//
compound: Cn1cncc1[C@@H]1CNC[C@H]1CNC(=O)c1ccccc1NC1CCCCC1
obs value: > 10 µM
//
compound: Cc1noc(-c2ccnc(NC[C@@H](c3ccccn3)N3CCOCC3)c2)n1
obs value: > 10 µM
//
compound: O[C@@H](CNCc1cc2cc(Cl)c(Cl)cc2[nH]1)c1ccc(F)cc1
obs value: > 10 µM
//
compound: O=C(Nc1cnc2c(c1)COCC2)c1cc2c(OC(F)(F)F)cccc2[nH]1
obs value: > 10 µM
//
compound: Cc1cc(O)c(Cl)cc1-c1ccc2nccc(N)c2c1
obs value: > 10 µM
//
compound: CN(C)Cc1cccc(CCNCc2csc(-c3ccc(C(F)(F)F)cc3)n2)c1
obs value: 7.76 µM
